// data source = patent US20210402016A1

# experimentalDetails: Biodistribution in PC-3 tumor-bearing NRG mice (Example 1)
# Type: in vivo
# studyConditions: male, NRG (NOD.Cg-Rag1tm1Mom Il2rgtm1Wjl/SzJ), mouse, muscle, iv, 1.84 MBq, total radioactivity; 60 min p.i.; read-out: Biodistribution Muscle, Mean
readoutLabel: tissue uptake at 1 h (%ID/g)

[[record]]
compound = "CC(C)C[C@@H](CN1CCC[C@H]1C(N)=O)NC(=O)[C@H](Cc1c[nH]cn1)NC(=O)CNC(=O)[C@@H](NC(=O)[C@H](C)NC(=O)[C@H](Cc1c[nH]c2ccccc12)NC(=O)[C@H](CCC(N)=O)NC(=O)[C@@H](Cc1ccccc1)NC(=O)COCC(=O)Nc1ccc(CNC(=O)CN2CCN(CC(=O)O)CCN(CC(=O)O)CCN(CC(=O)O)CC2)cc1)C(C)C [^68Ga-ProBOMB1, metal not drawn]"
resultunits = "%ID/g"
measuredresult = 0.09

